All figures here come from patent US12371454B2.

tested_on: Kras and SOS1 (biotin-tagged human Kras loaded with GDP, His-tagged human SOS1) (Homo sapiens, UniProt P01116, G12D)
Construct: made in house; host or cells: E. coli (stated for Kras only)
Sequence (P01116 1-188 isoform P01116-2 G12D): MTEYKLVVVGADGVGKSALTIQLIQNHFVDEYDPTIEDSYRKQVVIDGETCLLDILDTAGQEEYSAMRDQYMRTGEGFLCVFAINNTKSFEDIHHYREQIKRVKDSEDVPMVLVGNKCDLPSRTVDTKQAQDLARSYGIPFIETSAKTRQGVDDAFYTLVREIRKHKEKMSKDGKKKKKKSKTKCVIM
experiment_summary: Protein-protein interaction inhibition between Kras and SOS1 (KrasGl2D-SOS PPI) using AlphaScreen
Assay type: binding
experimental_parameters: AlphaScreen; biotin-tagged human Kras loaded with GDP, His-tagged human SOS1; read-out: KRAS G12D-SOS PPI IC50
Positions of bridges follow the written chain, without caps; N, C: chain ends. Non-standard residues stand in square brackets, D forms with d. Residues, ends and D or L forms follow the SMILES beside them. *: point of attachment. hPhe(3-Cl-4-CF3) = N[C@@H](CCc1ccc(C(F)(F)F)c(Cl)c1)C(=O)O; NMePhe(4-Me) = CN[C@@H](Cc1ccc(C)cc1)C(=O)O; NMeCha = CN[C@@H](CC1CCCCC1)C(=O)O; NMeI = CC[C@H](C)[C@H](NC)C(=O)O; NMeD = CN[C@@H](CC(=O)O)C(=O)O; NMeL = CN[C@@H](CC(C)C)C(=O)O; NEtAla = CCN[C@@H](C)C(=O)O; NMeV = CN[C@H](C(=O)O)C(C)C; NMeA = CN[C@@H](C)C(=O)O; Piperidide = C1CCN(*)CC1; Ac5c = NC1(C(=O)O)CCCC1; Aze = O=C(O)[C@@H]1CCN1; Sar = CNCC(=O)O

- compound: "CC[C@H](C)[C@@H]1NC(=O)[C@H](CC(C)C)N(C)C(=O)C[C@@H](C(=O)N(C)C)N(C)C(=O)[C@H]([C@@H](C)CC)N(C)C(=O)[C@H](C(C)C)NC(=O)[C@H](C)N(C)C(=O)[C@H](CCc2ccc(C(F)(F)F)c(Cl)c2)NC(=O)CN(C)C(=O)[C@H](Cc2ccc(C)cc2)N(C)C(=O)[C@@H]2CCN2C(=O)[C@H](C)N(C)C1=O [Compound 4] ([NMeL]I[NMeA][Aze][NMePhe(4-Me)][Sar][hPhe(3-Cl-4-CF3)][NMeA]V[NMeI][NMeD]-NMe2; lactam N-11)"
  result_units: "nM"
  IC50: 13
- compound: "CC[C@H](C)[C@@H]1NC(=O)[C@H](C)N(CC)C(=O)C[C@@H](C(=O)N2CCCCC2)N(C)C(=O)[C@H](C(C)C)N(C)C(=O)C2(CCCC2)NC(=O)[C@@H]2CCCN2C(=O)[C@H](CCc2ccc(C(F)(F)F)c(Cl)c2)NC(=O)CN(C)C(=O)[C@H](CC2CCCCC2)N(C)C(=O)CN(C)C(=O)CN(C)C1=O [Compound 1051] ([NEtAla]I[Sar][Sar][NMeCha][Sar][hPhe(3-Cl-4-CF3)]P[Ac5c][NMeV][NMeD]-Piperidide; lactam N-11)"
  result_units: "nM"
  IC50: 2.9

====

tested_on: Kras and SOS1 (biotin-tagged human Kras loaded with GDP, His-tagged human SOS1) (Homo sapiens, UniProt P01116, G12D)
Construct: made in house; host or cells: E. coli (stated for Kras only)
experiment_summary: Protein-protein interaction inhibition between Kras and SOS1 (KrasGl2D-SOS PPI) using AlphaScreen
Type: binding
experimental_parameters: AlphaScreen; biotin-tagged human Kras loaded with GDP, His-tagged human SOS1; read-out: KRAS G12D-SOS PPI IC50
pIC50: −log10 of the molar value. Positions of bridges follow the written chain, without caps; N, C: chain ends. Non-standard residues stand in square brackets, D forms with d. Residues, ends and D or L forms follow the SMILES beside them. *: point of attachment. hPhe(3-Cl-4-CF3) = N[C@@H](CCc1ccc(C(F)(F)F)c(Cl)c1)C(=O)O; NMeAla(cPent) = CN[C@@H](CC1CCCC1)C(=O)O; NMeGly(cBu) = CN[C@H](C(=O)O)C1CCC1; NMeCha = CN[C@@H](CC1CCCCC1)C(=O)O; NMeChg = CN[C@H](C(=O)O)C1CCCCC1; NMeD = CN[C@@H](CC(=O)O)C(=O)O; NMeL = CN[C@@H](CC(C)C)C(=O)O; Morpholide = C1CN(*)CCO1; Piperidide = C1CCN(*)CC1; Ac5c = NC1(C(=O)O)CCCC1; Sar = CNCC(=O)O
assay_readout: pIC50

- molecule: "CC[C@H](C)[C@@H]1NC(=O)[C@H](CC(C)C)N(C)C(=O)C[C@@H](C(=O)N2CCCCC2)NC(=O)[C@H](C2CCCCC2)N(C)C(=O)C2(CCCC2)NC(=O)[C@@H]2CCCN2C(=O)[C@H](CCc2ccc(C(F)(F)F)c(Cl)c2)NC(=O)CN(C)C(=O)[C@H](CC2CCCCC2)N(C)C(=O)CN(C)C(=O)CN(C)C1=O [Compound 1274] ([NMeL]I[Sar][Sar][NMeCha][Sar][hPhe(3-Cl-4-CF3)]P[Ac5c][NMeChg]D-Piperidide; lactam N-11)"
  assay_readout: "pIC50"
  measured_value: 8.42
- molecule: "CC[C@H](C)[C@@H]1NC(=O)[C@H](C2CCC2)N(C)C(=O)C[C@@H](C(=O)N2CCOCC2)N(C)C(=O)[C@H](C2CCCCC2)N(C)C(=O)C2(CCCC2)NC(=O)[C@@H]2CCCN2C(=O)[C@H](CCc2ccc(C(F)(F)F)c(Cl)c2)NC(=O)CN(C)C(=O)[C@H](CC2CCCC2)N(C)C(=O)CN(C)C(=O)CN(C)C1=O [Compound 434] ([NMeGly(cBu)]I[Sar][Sar][NMeAla(cPent)][Sar][hPhe(3-Cl-4-CF3)]P[Ac5c][NMeChg][NMeD]-Morpholide; lactam N-11)"
  assay_readout: "pIC50"
  measured_value: 9.28

====

tested_on: Kras and SOS1 (biotin-tagged human Kras loaded with GDP, His-tagged human SOS1) (Homo sapiens, UniProt P01116, G12D)
Construct: made in house; host or cells: E. coli (stated for Kras only)
experiment_summary: Protein-protein interaction inhibition between Kras and SOS1 (KrasGl2D-SOS PPI) using AlphaScreen
Assay type: binding
experimental_parameters: AlphaScreen; biotin-tagged human Kras loaded with GDP, His-tagged human SOS1; read-out: KRAS G12D-SOS PPI IC50
pIC50: −log10 of the molar value. Starred links: 1 amine or outer side, 2 acyl side, 3 side chain; linkers in the order of their positions; H or OH if unused. Positions of bridges follow the written chain, without caps; N, C: chain ends. Non-standard residues stand in square brackets, D forms with d. Residues, ends and D or L forms follow the SMILES beside them. *: point of attachment. hPhe(3,5-F2-4-CF3) = N[C@@H](CCc1cc(F)c(C(F)(F)F)c(F)c1)C(=O)O; hPhe(3-Cl-4-CF3) = N[C@@H](CCc1ccc(C(F)(F)F)c(Cl)c1)C(=O)O; NMePhe(4-CF3) = CN[C@@H](Cc1ccc(C(F)(F)F)cc1)C(=O)O; hPhe(4-CF3) = N[C@@H](CCc1ccc(C(F)(F)F)cc1)C(=O)O; NMePhe(4-Cl) = CN[C@@H](Cc1ccc(Cl)cc1)C(=O)O; NMePhe(2-Cl) = CN[C@@H](Cc1ccccc1Cl)C(=O)O; NMedβ3hAla = C[C@H](CC(=O)[*:2])N(C)[*:1]; NMeCha = CN[C@@H](CC1CCCCC1)C(=O)O; NMeF = CN[C@@H](Cc1ccccc1)C(=O)O; NMeI = CC[C@H](C)[C@H](NC)C(=O)O; NMeD = CN[C@@H](CC(=O)O)C(=O)O; NMeL = CN[C@@H](CC(C)C)C(=O)O; NMeV = CN[C@H](C(=O)O)C(C)C; d(β3hA) = C[C@@H](N)CC(=O)O; NMeS = CN[C@@H](CO)C(=O)O; NMeA = CN[C@@H](C)C(=O)O; Pyrrolidide = C1CCN(*)C1; Ac5c = NC1(C(=O)O)CCCC1; Aze = O=C(O)[C@@H]1CCN1; CH2CMe2OH = CC(C)(O)C*; Ac3c = NC1(C(=O)O)CC1; Sar = CNCC(=O)O

- compound: "CC[C@H](C)[C@@H]1NC(=O)[C@H](CC(C)C)N(C)C(=O)C[C@@H](C)N(C)C(=O)[C@H](C(C)C)N(C)C(=O)C2(CC2)NC(=O)[C@@H]2CCCN2C(=O)[C@H](CCc2ccc(C(F)(F)F)c(Cl)c2)NC(=O)CN(C)C(=O)[C@H](CC2CCCCC2)N(C)C(=O)CN(C)C(=O)CN(C)C1=O [Compound 268] (cyclo([Ac3c][NMeV][NMedβ3hAla][NMeL]I[Sar][Sar][NMeCha][Sar][hPhe(3-Cl-4-CF3)]P))"
  pIC50: 7.74
- compound: "CC[C@H](C)[C@@H]1NC(=O)[C@H](CC(C)C)N(C)C(=O)C[C@@H](C)N(C)C(=O)[C@H](C(C)C)N(C)C(=O)C2(CCCC2)NC(=O)[C@@H]2CCCN2C(=O)[C@H](CCc2ccc(C(F)(F)F)c(Cl)c2)NC(=O)CN(C)C(=O)[C@H](Cc2ccccc2Cl)N(C)C(=O)CN(C)C(=O)CN(C)C1=O [Compound 1615] (cyclo([Ac5c][NMeV][NMedβ3hAla][NMeL]I[Sar][Sar][NMePhe(2-Cl)][Sar][hPhe(3-Cl-4-CF3)]P))"
  pIC50: 7.40
- compound: "CC[C@H](C)[C@@H]1NC(=O)[C@H](C)N(C)C(=O)C[C@@H](C)NC(=O)[C@H](C(C)C)N(C)C(=O)[C@H](Cc2ccccc2)N(C)C(=O)[C@H](CC(C)C)N(C)C(=O)[C@H](CCc2ccc(C(F)(F)F)cc2)NC(=O)CN(C)C(=O)[C@H](Cc2ccc(Cl)cc2)N(C)C(=O)[C@@H]2CCN2C(=O)CN(C)C1=O [Compound 913] (cyclo([Aze][NMePhe(4-Cl)][Sar][hPhe(4-CF3)][NMeL][NMeF][NMeV][d(β3hA)][NMeA]I[Sar]))"
  pIC50: 7.28
- compound: "CC[C@H](C)[C@@H]1NC(=O)[C@H](CC(C)C)N(C)C(=O)C[C@@H](C(=O)N2CCCC2)N(C)C(=O)[C@H]([C@@H](C)CC)N(C)C(=O)C2(CCCC2)NC(=O)[C@@H]2CCCN2C(=O)[C@H](CCc2cc(F)c(C(F)(F)F)c(F)c2)NC(=O)CN(C)C(=O)[C@H](Cc2ccc(C(F)(F)F)cc2)N(C)C(=O)[C@@H]2CCN2C(=O)[C@H](C)N(C)C1=O [Compound 1343] ([NMeL]I[NMeA][Aze][NMePhe(4-CF3)][Sar][hPhe(3,5-F2-4-CF3)]P[Ac5c][NMeI][NMeD]-Pyrrolidide; lactam N-11)"
  pIC50: 9.21
- compound: "CC[C@H](C)[C@@H]1NC(=O)[C@H](C)N(C)C(=O)C[C@@H](C(=O)N2CCCC2)NC(=O)[C@H](CC(C)C)N(C)C(=O)[C@H](COCC(C)(C)O)N(C)C(=O)[C@H](CC(C)C)NC(=O)[C@H](CCc2ccc(C(F)(F)F)cc2)NC(=O)CN(C)C(=O)[C@H](Cc2ccc(Cl)cc2)N(C)C(=O)CN(C)C(=O)CN(C)C1=O [Compound 582] ([NMeA]I[Sar][Sar][NMePhe(4-Cl)][Sar][hPhe(4-CF3)]L[NMeS](CH2CMe2OH)[NMeL]D-Pyrrolidide; lactam N-11)"
  pIC50: 7.62
